assay: Pharmacokinetic study of LUT and LUT-NS-LP in rats; assay type: in vivo, Sprague-Dawley (SD) rats; conditions: male, Sprague-Dawley, rat, plasma, po, 200 mg/kg
assay metric: AUC(0-inf) (µg·h/mL)
Return type: number; implicit unit µg·h/mL.

Prompt: Query (molecule): O=c1cc(-c2ccc(O)c(O)c2)oc2cc(O)cc(O)c12 [LUT, Luteolin] ; field requested: AUC(0-inf)
Response: 4.23

---

assay: Pharmacokinetic study of LUT and LUT-NS-LP in rats; assay type: in vivo, Sprague-Dawley (SD) rats; conditions: male, Sprague-Dawley, rat, plasma, po, 200 mg/kg
assay metric: AUC(0-t) (µg·h/mL)
Respond numerically; units are µg·h/mL and should not be typed.

Prompt: Returns the measured AUC(0-t) for the input compound. Input: O=c1cc(-c2ccc(O)c(O)c2)oc2cc(O)cc(O)c12
Response: 3.84

---

assay: Pharmacokinetic study of LUT and LUT-NS-LP in rats; type: in vivo, Sprague-Dawley (SD) rats; details: male, Sprague-Dawley, rat, plasma, po, 200 mg/kg
assay metric: half-life (h)
Numeric only. Scale: h

Prompt: Would you mind telling me what half-life value was observed for O=c1cc(-c2ccc(O)c(O)c2)oc2cc(O)cc(O)c12 ?
Response: 2.6
